test: Cmax in Sprague-Dawley rat at 10 mg/kg, po; assay type: ADME, organism-based; design: dose 10 mg/kg, route oral; conditions: in vivo
observation.type: Cmax (nM)

>>> data_value("CCCCCCCCN1CCc2c(C)c(CC(=O)O)c(C)c(NC(=O)C(C)(C)C)c21")
2200

---

molecular target: Acyl-CoA:cholesterol acyltransferase (Oryctolagus cuniculus, UniProt Q95214); test: Inhibition of ACAT in hyperlipidemic white rabbit liver microsomes assessed as esterified cholesterol accumulation; set-up: species or system Microsome
Sequence (Q95214 whole entry): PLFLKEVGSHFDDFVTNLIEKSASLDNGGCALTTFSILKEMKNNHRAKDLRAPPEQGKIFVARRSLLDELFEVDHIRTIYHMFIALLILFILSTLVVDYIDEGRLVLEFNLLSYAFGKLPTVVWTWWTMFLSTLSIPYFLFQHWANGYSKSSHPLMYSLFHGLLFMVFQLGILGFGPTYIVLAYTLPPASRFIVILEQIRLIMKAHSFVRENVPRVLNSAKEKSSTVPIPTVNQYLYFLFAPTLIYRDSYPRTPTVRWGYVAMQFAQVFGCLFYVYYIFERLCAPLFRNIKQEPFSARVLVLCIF
observation.type: IC50

>>> data_value("CCCCCCCCN1CCc2c(C)c(CC(=O)O)c(C)c(NC(=O)C(C)(C)C)c21")
"690 nM"
